# System: SR leukemia
# assay remarks: NCI-60 one-dose screen, 48 h (100 = growth as untreated, 0 = no growth, -100 = all killed)
# experimental conditions: 10 µM unless noted
Compounds without any hit were thinned out: in the full panel of roughly 83,000, 20% have a hit.
Catalogue of compounds with associated growth

{"compound": "CN1CC[C@H](c2c(O)cc(O)c3c(=O)cc(-c4ccccc4Cl)oc23)[C@H](O)C1", "tested system": "SR leukemia", "growth (%)": -0.341}
{"compound": "C[C@@H](C[C@H](CCO)c1cc(C(F)(F)F)cc(C(F)(F)F)c1)c1ccc2ccccc2c1", "tested system": "SR leukemia", "growth (%)": 30.6}
{"compound": "O=C(O)c1ccc2c(c1)nc(Nc1cccc(Cl)c1)c1ccncc12", "tested system": "SR leukemia", "growth (%)": -11.3}
{"compound": "CN(C[C@@H]1COCCO1)S(=O)(=O)Nc1ccc2ccc3ncc(-c4cnn(C)c4)cc3c(=O)c2c1", "tested system": "SR leukemia", "growth (%)": 13.1}
{"compound": "CC(C)c1ccc(/C=N/Nc2nc3ccccc3s2)cc1", "tested system": "SR leukemia", "growth (%)": 89.9}
{"compound": "NC1(C(=O)N[C@@H](CCO)c2ccc(Cl)cc2)CCN(c2ncnc3[nH]ccc23)CC1", "tested system": "SR leukemia", "growth (%)": 23.7}
{"compound": "O=c1[nH]c([C@@H]2CCCN2)nc2c1oc1ccc(Cl)cc12", "tested system": "SR leukemia", "growth (%)": 34.1}
{"compound": "Cc1cc(C)n(CC(=O)Nc2ccc(-c3nc4ccccc4s3)cc2)n1", "tested system": "SR leukemia", "growth (%)": 99.4}
{"compound": "COC1CCC(N2C(=O)CNc3ncc(-c4ccc(C(C)(C)O)nc4)nc32)CC1 (stereo not given)", "tested system": "SR leukemia", "growth (%)": -0.973}
{"compound": "Cc1cc(Nc2ncc(Cl)c(Nc3ccccc3S(=O)(=O)C(C)C)n2)c(OC(C)C)cc1C1CCNCC1", "tested system": "SR leukemia", "growth (%)": -44.7}

----------
Below, each entry is listed alongside its reported growth.
# System: HCT-15 colon
# assay remarks: NCI-60 one-dose screen, 48 h (100 = growth as untreated, 0 = no growth, -100 = all killed)
# experimental conditions: 10 µM unless noted
This is part of a sample that, as a whole, favours compounds with a hit. Of some 83,000 tested, about 20% had one in any assay.
assay metric: growth (%)

{"molecule": "CCCCCCC1(/C=N/NC(N)=O)NC(=O)NC1=O (centres undefined)", "reported result": 98.3}
{"molecule": "COc1ccc(COc2cc3oc(=O)c4cc(C(C)O)ccc4c3cc2OC)cc1 (centres undefined)", "reported result": 36.6}
{"molecule": "COc1cc(Nc2ncc(F)c(Nc3ccc4c(n3)NC(=O)C(C)(C)O4)n2)cc(OC)c1OC", "reported result": 53.3}
{"molecule": "Cc1cc2c(F)c(Oc3ncnn4cc(OC[C@@H](C)OC(=O)[C@H](C)N)c(C)c34)ccc2[nH]1", "reported result": 38.6}
{"molecule": "CC1CCC(n2cnc3c(Cl)ncnc32)O1 (centres undefined)", "reported result": 103}
{"molecule": "COC(=O)[C@]12CC[C@@H](C)[C@H](C)[C@@H]1C1=CC[C@@H]3[C@@]4(C)C(C=O)=C[C@@](C)(COS(C)(=O)=O)C4=CC[C@@]3(C)[C@]1(C)CC2", "reported result": -80.5}
{"molecule": "CCNC(=O)Nc1nc2ccc(Oc3ccnc(C(=O)NC)c3)cc2s1", "reported result": 52.7}
{"molecule": "CCC1(/C=N/NC(N)=S)NC(=O)NC1=O (centres undefined)", "reported result": 107}
{"molecule": "Clc1ccc(Nc2nccc(Nc3ccc4[nH]ncc4c3)n2)cc1", "reported result": 40.5}
{"molecule": "O=C1/C(=C\\c2cccc(OCCCCCOc3ccc(Cl)cc3)c2)N=C2SCCCN12", "reported result": 57.7}
{"molecule": "CC(=O)OCCC/C(=C\\c1ccc2ccccc2c1)[N+](=O)[O-]", "reported result": -69.4}
{"molecule": "O=C(Cn1ccc2ccccc21)Nc1ccc(-c2nc3ccccc3s2)cc1", "reported result": 110}
{"molecule": "CSc1nc2ncncc2[nH]1", "reported result": 101}
{"molecule": "CCN(CCCOc1ccc2c(Nc3cc(CC(=O)Nc4cccc(F)c4)[nH]n3)ncnc2c1)CCOP(=O)(O)O", "reported result": 84.7}
{"molecule": "Cc1nc(Nc2n[nH]c3c2CN(C(=O)N[C@H](CN(C)C)c2ccccc2)C3(C)C)c2sccc2n1", "reported result": 20}
{"molecule": "C[C@@H](Nc1cc(F)cc(F)c1)c1cc(C(=O)N(C)C)cc2c(=O)cc(N3CCOCC3)oc12", "reported result": 84}
{"molecule": "Cc1cn(-c2cc(NC(=O)c3ccc(C)c(Nc4nccc(-c5cnccn5)n4)c3)cc(C(F)(F)F)c2)cn1", "reported result": 82}
{"molecule": "Cc1c(N)ccc(-c2ccc(N)c(C)c2S(=O)(=O)O)c1S(=O)(=O)O", "reported result": 111}
{"molecule": "CO[C@@H](C(=O)N1Cc2[nH]nc(NC(=O)c3ccc(N4CCN(C)CC4)cc3)c2C1)c1ccccc1", "reported result": 74.2}
{"molecule": "COc1cc2c(cc1O)c(=O)n(CCN(C)C)c1c3cc4c(cc3ncc21)OCO4", "reported result": 2.84}
{"molecule": "O=c1[nH]ccc2c(S(=O)(=O)N3CCCNCC3)cccc12", "reported result": 93.3}
{"molecule": "C=CCN(/C=C1/C(=O)O[C@H](COC)[C@@]2(C)C1=C(O)C(=O)C1=C2[C@H](OC(C)=O)C[C@]2(C)C(=O)CC[C@@H]12)CC=C", "reported result": 24.2}
{"molecule": "Cn1cnc2c(F)c(Nc3ccc(Br)cc3F)c(C(=O)NOCCO)cc21", "reported result": 62}
{"molecule": "CCCCCCCC12Cc3ccccc3C1=Nc1c(c3ccccc3n1C)C2=O (centres undefined)", "reported result": 91.7}
{"molecule": "CCc1ccc(/C=C/c2ccc(O)c3ncccc23)[n+](C)c1", "reported result": 85}
{"molecule": "COc1cc(OC)c(C(=O)/C=C/c2cc3c(cc2OCc2ccccc2)OC(C)(C)CC3)cc1CC=C(C)C", "reported result": 39.7}
{"molecule": "CCCCCC(=O)OCc1ccc(Cl)c(Cl)c1", "reported result": 109}
{"molecule": "CC(C)CC(=O)Nc1n[nH]c2c1CN(C(=O)C1CCN(C)CC1)C2(C)C", "reported result": 78.8}
{"molecule": "CCS(=O)(=O)N1CCN(c2ccc(Nc3ncc(C(N)=O)c(NC4CC4)n3)cc2)CC1", "reported result": 58.2}
{"molecule": "Nc1nc(N)c2cc(CNc3ccc(C(=O)NC(CC(=O)O)C(=O)O)cc3)ccc2n1 (centres undefined)", "reported result": 36.9}
{"molecule": "NC(=O)N1N=C(c2ccc(Cl)cc2)CC1c1cn(-c2ccccc2)nc1-c1ccc(Cl)cc1 (centres undefined)", "reported result": 72}
{"molecule": "O=C(Cn1cncn1)Nc1ccc(-c2nc3ccccc3s2)cc1", "reported result": 101}
{"molecule": "COc1cc2c(Oc3ccc4[nH]c(C)cc4c3F)ncnc2cc1OCCCN1CCCC1", "reported result": 99.4}
{"molecule": "CN1CCN(CCCOc2cccc3nc(Nc4ccc(Cl)c(C(F)(F)F)c4)ccc23)CC1", "reported result": -49.6}
{"molecule": "Cc1cccc(Cl)c1NC(=O)c1cnc(Nc2cc(N3CCOCC3)cc(N3CCOCC3)c2)s1", "reported result": 22.2}
{"molecule": "CC(C)c1cc(CNc2nc(Nc3cc(C4CC4)[nH]n3)cc(N3CCN(C)CC3)n2)on1", "reported result": 6.83}
{"molecule": "O=C(Cc1ccc(-c2ccc(OCCN3CCOCC3)cc2)cn1)NCc1ccccc1", "reported result": 7.16}
{"molecule": "CC(=O)Oc1ccccc1C(=O)N=C1[Se]CCN1C(=O)c1ccccc1OC(C)=O", "reported result": -36.1}
{"molecule": "COc1c(C(NC(=O)c2ccccc2)c2sccc2C)cc(Cl)c2cccnc12 (centres undefined)", "reported result": 101}
